Biological target: TPβ isoform of the human T Prostanoid receptor (thromboxane receptor, TP) (Homo sapiens, UniProt P21731)
Construct: TPβ isoform, stably over-expressed in HEK 293 cells (HEK.TPβ line)
Sequence (P21731 1-328 limits assumed): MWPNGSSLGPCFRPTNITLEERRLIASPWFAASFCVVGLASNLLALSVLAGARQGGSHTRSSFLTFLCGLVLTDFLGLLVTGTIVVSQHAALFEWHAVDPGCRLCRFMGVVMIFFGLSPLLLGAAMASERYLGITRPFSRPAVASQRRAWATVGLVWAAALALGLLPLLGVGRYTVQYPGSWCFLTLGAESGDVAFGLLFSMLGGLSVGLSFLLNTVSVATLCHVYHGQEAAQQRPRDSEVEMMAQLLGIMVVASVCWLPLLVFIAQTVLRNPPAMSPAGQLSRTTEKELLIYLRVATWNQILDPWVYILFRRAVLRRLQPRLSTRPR
Assay: antagonism of U46619-stimulated intracellular calcium mobilization in HEK.TPβ cells (also vs 8-iso-PGF2α, IC50 […])
recorded_metric: pIC50
By convention, pIC50 is the negative base-10 log of a molar concentration.

Task: What value of measured pIC50 is listed for CC(C)(C)NC(=O)NS(=O)(=O)c1cc(C#N)ccc1Oc1cccc(-c2ccc(OC(F)F)cc2)c1 ?
Output: 8.05

FYI, the data here is from paper PMC7132963.
